What T/C was measured for each of the following?
- Tested on: P388 leukemia ip, CD2F1 mice, survival T/C
- assay.comment: NCI In Vivo Anticancer Drug Screen. Data for tumor model P388 Leukemia (intraperitoneal) in CD2F1 (CDF1) mice
- run.parameters: endpoint: median survival time; dose: 400.0 mg/kg/injection; schedule: Q04DX002 (ip); vehicle: saline; higher = longer survival
Toxic doses and inconclusive results are not listed.

The measured T/C associated with C[n+]1ccccc1-c1ccc[n+](CCC[n+]2cccc(-c3cccc[n+]3C)c2)c1 reads 108 % of control

The measured T/C associated with Cc1ccccc1C1(C)C(=O)c2ccccc2C1=O reads 100 % of control

The measured T/C associated with CC(C)c1cccc(C2(C)C(=O)c3ccccc3C2=O)c1 reads 100 % of control

The measured T/C associated with COc1cc2c(cc1O)-c1oncc1CCC2 reads 95 % of control

* * *

- System: P388 leukemia ip, CD2F1 mice, survival T/C
- assay.comment: NCI In Vivo Anticancer Drug Screen. Data for tumor model P388 Leukemia (intraperitoneal) in CD2F1 (CDF1) mice
- run.parameters: endpoint: median survival time; dose: 12.5 mg/kg/injection; schedule: Q04DX003 (ip); vehicle: saline with Tween-80
Inconclusive results and toxic doses are left out. Rule for the calls: active = survival T/C of 150% or more; inactive = T/C below 125% in these data.
Hi there, use one of these labels in your reply, thanks! yes = active, no = inactive

-- ask What did this assay record as the result for CCOP(=O)(N(CCCl)CCCl)N1CCc2ccccc2C1 (stereo not drawn) ?
-- reply no

-- ask What did this assay record as the result for CCCCOC(=O)c1ccccc1C(=O)O.CCCCOC(=O)c1ccccc1C(=O)O.[Cu+2] ?
-- reply no

-- ask What did this assay record as the result for O=NN(CCCl)C(=O)Nc1c[nH]c(=O)[nH]c1=O ?
-- reply yes

-- ask What did this assay record as the result for NC(N)=N/N=C/c1ccc(-c2ccccc2)cc1 ?
-- reply no

-- ask What did this assay record as the result for CCC(=O)NCC(=O)O ?
-- reply no

-- ask What did this assay record as the result for Cc1c(CNc2ccc(C(=O)NC(CC(=O)O)CC(=O)O)cc2)ccc2nc(N)nc(N)c12 ?
-- reply no

-- ask What did this assay record as the result for Nc1nc2nc3c(nc2c(=O)[nH]1)C(=O)N(c1ccc(C(=O)O)cc1)C3 ?
-- reply no

-- ask What did this assay record as the result for CCCCCCCCCCCCC1(O)OC(=O)C(C)=C1C (stereo not drawn) ?
-- reply no

* * *

- System: P388 leukemia ip, CD2F1 mice, survival T/C
- assay.comment: NCI In Vivo Anticancer Drug Screen. Data for tumor model P388 Leukemia (intraperitoneal) in CD2F1 (CDF1) mice
- run.parameters: endpoint: median survival time; dose: 100.0 mg/kg/injection; schedule: Q01DX009 (ip); vehicle: saline
- Procedure: The antitumor activity of compounds was measured in mice bearing transplantable tumors. Survival or tumor size were measured and the results are expressed as the measurement made in the treated group (T) divided by the measurement made in the vehicle treated control group (C). The tumor model used in this assay is P388 Leukemia (intraperitoneal) in CD2F1 (CDF1) mice
Toxic doses and inconclusive results are not listed. The calls were made as follows: active = survival T/C of 150% or more; inactive = T/C below 125% in these data.
Hi there, use one of these labels in your reply, thanks! active, inactive

-- ask What did this assay record as the result for CCCC(O)C(NC(=O)CCl)C(=O)O (stereo unspecified) ?
-- reply inactive

-- ask What did this assay record as the result for CCOP(=O)(CC(=O)O)OCC ?
-- reply inactive

-- ask What did this assay record as the result for CC(N)C(=O)NC(CC(=O)O)C(=O)O (stereo unspecified) ?
-- reply inactive

-- ask What did this assay record as the result for CC(=O)NCNC(C)=O ?
-- reply inactive

-- ask What did this assay record as the result for C=C1CCOC2(C(O)C(C)(O)CO)NC(=O)C1(O)NC2=O (stereo unspecified) ?
-- reply inactive

-- ask What did this assay record as the result for CC(=O)c1oc(C)nc1C ?
-- reply inactive

-- ask What did this assay record as the result for CCCC(=O)C(CC)C(O)(C(F)(F)F)C(F)(F)F (stereo unspecified) ?
-- reply inactive

-- ask What did this assay record as the result for OC1C(O)C(O)C(O)C(O)C1O (stereo unspecified) ?
-- reply inactive

-- ask What did this assay record as the result for O=[N+]([O-])c1ccc(/C=C(/c2ccc([N+](=O)[O-])o2)S(=O)(=O)C(Cl)(Cl)Cl)cc1 ?
-- reply inactive

-- ask What did this assay record as the result for CCCCC#CC(=O)O ?
-- reply inactive

-- ask What did this assay record as the result for COc1ccc(CCNCC(O)c2ccc(C)s2)cc1OC (stereo unspecified) ?
-- reply inactive

-- ask What did this assay record as the result for OC1CN(CCCCCCN2CC(O)ON2)NO1 (stereo unspecified) ?
-- reply inactive

-- ask What did this assay record as the result for CN(CO)c1nc(N(C)CO)nc(N(C)CO)n1 ?
-- reply active

-- ask What did this assay record as the result for C=C1C(=O)OC2(CCCCC)CCCCC12 (stereo unspecified) ?
-- reply inactive

-- ask What did this assay record as the result for C[Si](C)(c1ccc(Cl)cc1)c1ccc(Cl)cc1 ?
-- reply inactive

-- ask What did this assay record as the result for COCCOC(C)C(=O)C(O)S(=O)(=O)O (stereo unspecified) ?
-- reply inactive

-- ask What did this assay record as the result for CCCCC(N)P(=O)(O)O (stereo unspecified) ?
-- reply inactive

-- ask What did this assay record as the result for CCNCC(O)c1cccc(C(F)(F)F)c1 (stereo unspecified) ?
-- reply inactive

-- ask What did this assay record as the result for O=c1[nH]cc(CS)c(=O)[nH]1 ?
-- reply inactive

-- ask What did this assay record as the result for O=S(=O)(c1cnccc1N1CCN(CCO)CC1)N1CCCC1 ?
-- reply inactive

-- ask What did this assay record as the result for CCN(CC)CCOC(=O)C(c1ccccc1)C(C)(O)CC (stereo unspecified) ?
-- reply inactive

-- ask What did this assay record as the result for O=C1NC2(c3ccccc3)NC(=O)NC2(c2ccccc2)N1 (stereo unspecified) ?
-- reply inactive

-- ask What did this assay record as the result for NCCC1C2CC3CC(C2)CC1C3 (stereo unspecified) ?
-- reply inactive

-- ask What did this assay record as the result for COc1cc2c(cc1O)-c1c(cnn1-c1ccccc1)CCC2 ?
-- reply inactive

-- ask What did this assay record as the result for Nc1nccc([N+](=O)[O-])n1 ?
-- reply inactive

-- ask What did this assay record as the result for O=S1(=O)CCC(N2CCCCC2)C1 (stereo unspecified) ?
-- reply inactive

-- ask What did this assay record as the result for C=CCCC(OC(C)C)OC(C)C ?
-- reply inactive

-- ask What did this assay record as the result for CC(/C=N\N=C(N)N)=N/NC(N)=O ?
-- reply inactive

-- ask What did this assay record as the result for CC(C)OC(=O)NC1CCC2CCCCC2C1 (stereo unspecified) ?
-- reply inactive

-- ask What did this assay record as the result for CCOC(=O)c1ccccn1 ?
-- reply inactive

-- ask What did this assay record as the result for CS/C(=N/S(=O)(=O)c1ccccc1)NNC(=S)Nc1ccc(C(C)C)cc1 ?
-- reply inactive
